Cited source: patent US7888339B2

Tested on: 24-hydroxylase (24Ohase) gene promoter in ROS 17/2.8 (bone) cells
Assay: In vitro transcription assay (24-hydroxylase gene promoter, luciferase reporter)
Format: cell-based
Conditions: ROS 17/2.8 cells, 24-hydroxylase promoter-luciferase; FIG. 3; read-out: EC50, transcriptional activity in bone cells
readout label: EC50
Include the unit after the number when you answer.

molecule	assay value
C=C1[C@H](O)CC(=C/C=C2\CCC[C@]3(C)[C@@H](C(=C)CCCC(C)(C)O)CC[C@@H]23)C[C@H]1O	2 nM

Please find the next molecule below.
Record lookup: for 24-hydroxylase (24Ohase) gene promoter in ROS 17/2.8 (bone) cells, what EC50 belongs to C=C1/C(=C\C=C2/CCC[C@]3(C)[C@@H]([C@H](C)CCCC(C)(C)O)CC[C@@H]23)C[C@@H](O)C[C@@H]1O [1,25(OH)2D3, 1α,25-dihydroxyvitamin D3, reference compound] ?
0.3 nM
